experimental target: human GPR4 (Homo sapiens, UniProt P46093)
Sequence (P46093 whole entry): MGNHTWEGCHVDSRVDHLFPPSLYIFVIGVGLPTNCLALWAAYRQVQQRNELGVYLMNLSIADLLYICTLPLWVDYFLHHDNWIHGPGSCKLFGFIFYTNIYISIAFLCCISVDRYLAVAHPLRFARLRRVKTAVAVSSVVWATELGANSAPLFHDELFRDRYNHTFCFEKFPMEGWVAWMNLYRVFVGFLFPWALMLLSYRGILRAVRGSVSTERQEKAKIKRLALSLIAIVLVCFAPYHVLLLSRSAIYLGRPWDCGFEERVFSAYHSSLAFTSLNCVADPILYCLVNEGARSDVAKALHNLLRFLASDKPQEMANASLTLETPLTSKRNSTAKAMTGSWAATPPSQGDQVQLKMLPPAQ
experiment: Cell-based assay for human GPR4 activity (pH-induced cAMP formation, HTRF)
assay context: HeLa cells stably expressing human GPR4, pH-induced cAMP formation
Counter-ions that a name gives are not always drawn.
measurement kind: IC50 (µM)

Please review the following examples before continuing.
compound | IC50 (µM)
CCCc1nc2c(C)cc(C)nc2n1Cc1ccc(/C=C/CN2CCC(N3CCCCC3)CC2)cc1 [Example 82, dihydrochloride] | 0.455
CCc1nc2c(C)cc(C)nc2n1Cc1ccc(C#CCNCCN2CCCC2)cc1 | 0.704
CCCCN1CCN(C/C=C/c2ccc(Cn3c(CC)nc4c(C)cc(C)nc43)cc2)CC1 [Example 48, dihydrochloride] | 0.194

P = CCc1nc2c(C)cc(C)nc2n1Cc1ccc(/C=C/CN2CCOC(CN)C2)cc1 (centres unmarked) [Example 78, dihydrochloride]
Q = CCc1nc2c(C)cc(C)nc2n1Cc1ccc(/C=C/CN2CCC(N3CCCC3)CC2)cc1
R = CCc1nc2c(C)cc(C)nc2n1Cc1ccc(/C=C/CN2CCN(CC)CC2)cc1 [Example 44, dihydrochloride]
S = CCc1nc2c(C)cc(C)nc2n1Cc1ccc(C#CCN2CCC(N3CCCCC3)CC2)cc1
Hey, can you sort those compounds up there by IC50, smallest first? Output the labels ranked as instructed.
S, P, Q, R

The reported measurements were obtained from patent US20090291942A1.
